For each entry below, report its rat MASP1 IC50 value.
Molecular target: T1, recombinant rat MASP1 active protease (amino acids 302-704, C-terminal His Tag) (rat, UniProt Q8CHN8 302-704)
T1 sequence: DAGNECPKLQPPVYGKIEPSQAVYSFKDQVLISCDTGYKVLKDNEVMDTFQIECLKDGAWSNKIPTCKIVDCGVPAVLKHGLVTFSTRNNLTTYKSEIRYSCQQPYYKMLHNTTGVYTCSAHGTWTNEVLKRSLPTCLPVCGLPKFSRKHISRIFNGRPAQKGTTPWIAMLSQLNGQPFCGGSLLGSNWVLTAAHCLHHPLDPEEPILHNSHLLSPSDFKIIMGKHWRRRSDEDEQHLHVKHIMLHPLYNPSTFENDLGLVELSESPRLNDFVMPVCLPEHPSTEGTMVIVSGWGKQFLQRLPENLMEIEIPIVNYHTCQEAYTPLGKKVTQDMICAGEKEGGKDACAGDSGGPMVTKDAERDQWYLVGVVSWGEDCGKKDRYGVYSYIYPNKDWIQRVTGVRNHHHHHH
Assay: cell-based or functional assay
Numbered stars: 1 amine (or outer) side, 2 acyl side, 3 side chain; on linkers, the order of the positions; unused ones are H or OH. Bridge positions count the residues as written; N and C are the ends. Square brackets hold non-standard residues; d marks the D form. Ends that are not written are not given here. NHCH2(1,3-C6H4)CH2CO = O=C(Cc1cccc(CN[*:1])c1)[*:2]; Oic = O=C(O)[C@@H]1C[C@@H]2CCCC[C@@H]2N1; tBuAla = CC(C)(C)C[C@H](N)C(=O)O; Pen = CC(C)(S)[C@H](N)C(=O)O; Sar = CNCC(=O)O
Reply with the number, then its unit.

[ask] Please look up its rat MASP1 IC50: [dA]ICSRSLP[Oic]I[Pen]IP[NHCH2(1,3-C6H4)CH2CO]-OH (disulfide 3-11; N-terminus assumed; SMILES CC[C@H](C)[C@H](NC(=O)[C@@H](C)N)C(=O)N[C@H]1CSSC(C)(C)[C@@H](C(=O)N[C@H](C(=O)N2CCC[C@H]2C(=O)NCc2cccc(CC(=O)O)c2)[C@@H](C)CC)NC(=O)[C@H]([C@@H](C)CC)NC(=O)[C@@H]2C[C@@H]3CCCC[C@@H]3N2C(=O)[C@@H]2CCCN2C(=O)[C@H](CC(C)C)NC(=O)[C@H](CO)NC(=O)[C@H](CCCNC(=N)N)NC(=O)[C@H](CO)NC1=O) [Example 478: aIC+SRSLP-(Oic)-I-(Pen)-+IP-(3-Aminomethylphenylacetic acid)-OH]
[reply] 68 nM

[ask] Which rat MASP1 IC50 is reported for this binder? [Sar]ICSRSLP[Oic]I[Pen]IPD-OH (disulfide 3-11; N-terminus assumed; SMILES CC[C@H](C)[C@H](NC(=O)CNC)C(=O)N[C@H]1CSSC(C)(C)[C@@H](C(=O)N[C@H](C(=O)N2CCC[C@H]2C(=O)N[C@@H](CC(=O)O)C(=O)O)[C@@H](C)CC)NC(=O)[C@H]([C@@H](C)CC)NC(=O)[C@@H]2C[C@@H]3CCCC[C@@H]3N2C(=O)[C@@H]2CCCN2C(=O)[C@H](CC(C)C)NC(=O)[C@H](CO)NC(=O)[C@H](CCCNC(=N)N)NC(=O)[C@H](CO)NC1=O) [Example 88: ((N-Me)G)-IC+SRSLP-(Oic)-I-(Pen)+IPD-OH]
[reply] 36 nM

[ask] What value of rat MASP1 IC50 has been recorded for this entry: AICSRS[tBuAla]PPICI-NH2 (disulfide 3-11; N-terminus assumed; SMILES CC[C@H](C)[C@H](NC(=O)[C@@H]1CSSC[C@H](NC(=O)[C@@H](NC(=O)[C@H](C)N)[C@@H](C)CC)C(=O)N[C@@H](CO)C(=O)N[C@@H](CCCNC(=N)N)C(=O)N[C@@H](CO)C(=O)N[C@@H](CC(C)(C)C)C(=O)N2CCC[C@H]2C(=O)N2CCC[C@H]2C(=O)N[C@@H]([C@@H](C)CC)C(=O)N1)C(N)=O) [Example 37: AIC+SRS-((tBu)A)-PPIC+I-NH2]
[reply] 140 nM
